attribute_measured: IC50

Value wanted: IC50 (UniProtKB Q9UM73) of entry O=[N+]([O-])c1cccc(Nc2cc3nc4ccccc4n3cn2)c1
Sequence (Q9UM73 whole entry): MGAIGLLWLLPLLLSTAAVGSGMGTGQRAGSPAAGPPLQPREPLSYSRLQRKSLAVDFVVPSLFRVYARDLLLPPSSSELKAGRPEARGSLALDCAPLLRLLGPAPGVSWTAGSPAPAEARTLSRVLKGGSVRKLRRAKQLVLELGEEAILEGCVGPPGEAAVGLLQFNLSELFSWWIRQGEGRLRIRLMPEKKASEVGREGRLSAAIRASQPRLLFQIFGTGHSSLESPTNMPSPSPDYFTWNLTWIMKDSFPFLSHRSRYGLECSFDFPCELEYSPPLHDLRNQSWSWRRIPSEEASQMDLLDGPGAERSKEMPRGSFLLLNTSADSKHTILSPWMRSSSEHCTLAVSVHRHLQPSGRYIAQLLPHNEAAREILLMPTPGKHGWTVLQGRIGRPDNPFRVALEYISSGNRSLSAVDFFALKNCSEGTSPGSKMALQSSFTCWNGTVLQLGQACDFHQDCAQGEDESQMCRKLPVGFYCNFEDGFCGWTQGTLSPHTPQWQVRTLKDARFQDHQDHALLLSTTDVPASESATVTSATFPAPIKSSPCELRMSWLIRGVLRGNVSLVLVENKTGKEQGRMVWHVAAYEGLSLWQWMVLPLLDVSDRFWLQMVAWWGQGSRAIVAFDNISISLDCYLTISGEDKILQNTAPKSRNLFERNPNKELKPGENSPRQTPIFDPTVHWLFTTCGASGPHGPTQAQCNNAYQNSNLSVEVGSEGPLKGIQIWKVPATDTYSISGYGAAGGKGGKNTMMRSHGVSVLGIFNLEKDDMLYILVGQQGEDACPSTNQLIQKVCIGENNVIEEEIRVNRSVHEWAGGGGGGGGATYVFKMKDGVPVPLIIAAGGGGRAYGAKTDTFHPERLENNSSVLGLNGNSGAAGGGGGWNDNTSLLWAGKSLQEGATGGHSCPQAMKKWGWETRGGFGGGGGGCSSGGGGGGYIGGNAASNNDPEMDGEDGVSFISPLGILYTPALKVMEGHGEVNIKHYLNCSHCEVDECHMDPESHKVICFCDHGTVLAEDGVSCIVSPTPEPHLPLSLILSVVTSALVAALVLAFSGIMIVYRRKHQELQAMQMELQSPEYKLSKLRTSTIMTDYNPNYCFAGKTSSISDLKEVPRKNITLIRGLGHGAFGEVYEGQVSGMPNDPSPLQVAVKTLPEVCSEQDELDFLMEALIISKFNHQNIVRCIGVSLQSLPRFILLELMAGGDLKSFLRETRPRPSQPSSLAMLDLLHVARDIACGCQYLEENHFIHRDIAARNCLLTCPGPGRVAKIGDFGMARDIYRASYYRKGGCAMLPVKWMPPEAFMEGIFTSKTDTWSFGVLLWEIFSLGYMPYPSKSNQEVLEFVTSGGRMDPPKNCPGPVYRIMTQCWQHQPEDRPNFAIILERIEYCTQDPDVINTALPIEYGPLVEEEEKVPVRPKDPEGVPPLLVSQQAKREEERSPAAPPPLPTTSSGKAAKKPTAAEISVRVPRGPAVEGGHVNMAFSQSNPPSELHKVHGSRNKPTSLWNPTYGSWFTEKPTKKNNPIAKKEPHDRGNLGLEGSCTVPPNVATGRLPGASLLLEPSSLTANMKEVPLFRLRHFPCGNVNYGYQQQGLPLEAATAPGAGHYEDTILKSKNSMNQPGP
10 µM

Value wanted: IC50 (UniProtKB Q9UM73) of entry Brc1ccc2nc3cc(Nc4ccccc4)ncn3c2c1
69 µM

Value wanted: IC50 (UniProtKB Q9UM73) of entry Clc1cc2nc3ccc(Br)cc3n2cn1
> 50 µM

Value wanted: IC50 (UniProtKB Q9UM73) of entry COc1ccc(-c2cncc3nc4ccc(-c5ccc(N6CCN(C)CC6)cc5)cc4n23)cc1
14 µM

Value wanted: IC50 (UniProtKB Q9UM73) of entry COc1ccc(-c2cc3nc4ccc(Br)cc4n3cn2)cc1
10 µM

Value wanted: IC50 (UniProtKB Q9UM73) of entry COc1cccc(Nc2cc3nc4ccccc4n3cn2)c1
51 µM
